Biological target: quinoa 11S globulin (11S; chenopodin)
Construct: native, from defatted quinoa seed flour (seed origin Peru); alkaline extraction, pH 4.5 precipitation, size-exclusion FPLC; acidic (30-35 kDa) and basic (17-20 kDa) subunits disulfide-linked, about 55 kDa; isoform mixture not resolved; docking used amaranth 3qac as homologue
Experiment: isothermal titration calorimetry
Settings: distilled water pH 9, 25 °C; n 0.91; protein 36.4 µM
metric_name: Kd (µM)
Return type: number; implicit unit µM.

Input: Please look up its Kd: Oc1ccc(/C=C/c2cc(O)cc(O)c2)cc1 [RSV, 3,5,4′-trihydroxystilbene]
Output: 48.2
